- measurementTarget: Human immunodeficiency virus type 1 integrase (Human immunodeficiency virus 1)
- experimentSummary: Inhibition of HIV1 integrase strand transfer activity
propertyName: IC50 (µM)

[A] O=S(=O)(Nc1ccc(Br)cc1)c1ccc(Sc2ccc(S(=O)(=O)Nc3ccc(Br)cc3)cc2)cc1
[B] O=C(Nc1cccc(O)c1)c1cc(C(=O)Nc2cccc(O)c2)cc(N2C(=O)c3ccccc3C2=O)c1
[C] NC(=O)NN=C1c2cc(S(=O)(=O)NCc3ccco3)ccc2-c2ccc(S(=O)(=O)NCc3ccco3)cc21
-- ask Let's sort these by IC50, smallest first. Go ahead? Your reply should list the labels following the order given in the request.
-- reply C, B, A
(C: 20 µM, B: 100 µM, A: 251 µM)

[1] O=C(N/N=C/c1cccc([N+](=O)[O-])c1)c1cccc(C(=O)N/N=C/c2cccc([N+](=O)[O-])c2)n1
[2] CCCC(=O)NC(c1ccc(OC)c(OC)c1)c1cc(Cl)c2cccnc2c1O (stereo not given)
[3] COc1cccc(/C=C/C(=O)c2ccccc2)c1O
-- ask Order the items by recorded IC50; the first position goes to the largest value. Order the labels as requested and list them.
-- reply 1, 2, 3

[1] COc1ccc(NC(=O)c2cccc(S(=O)(=O)Nc3ccc(C(=O)O)cc3)c2)cc1
[2] CCc1nc2sc3c(c2c2nnc(SCC(=O)NNC(=O)c4ccc(OC)cc4)n12)CCCC3
[3] O=C(NNC(=O)c1c(O)c2ccccc2[nH]c1=O)c1cccc([N+](=O)[O-])c1
-- ask Rank ascending by IC50. Hello, could you send the labels back in the order asked? Thank you.
-- reply 3, 1, 2

[a] CCCc1nc2ccccc2c(=O)n1NC(=O)c1c(O)c2cccc3c2n(c1=O)CCC3
[b] O=C(NNC(=O)c1c(O)c2ccccc2[nH]c1=O)c1ccccc1
-- ask Out of a and b , name the one with the higher IC50. Return value: the label identifying the chosen record.
-- reply a

[A] O=C(COc1ccc2ccccc2c1)NNC(=O)c1ccccc1O
[B] CCOc1cc(Br)cc(/C=N/c2ncccc2O)c1O
[C] O=C(N/N=C/c1c[nH]c2ccccc12)c1ccc(O)c(O)c1
[D] Cc1cc(O)nc(SCC(=O)c2ccc(O)c(O)c2)n1
[E] O=C(COc1ccc2ccccc2c1)NNC(=O)c1cc2ccccc2cc1O
-- ask Place the items in sequence of falling IC50. Reply format: the labels, ordered as requested.
-- reply C, D, B, A, E
(C: 460 µM, D: 130 µM, B: 81 µM, A: 18 µM, E: 12 µM)

[I] Cc1ccc(NC(=O)CN2C(=O)/C(=N\NC(=O)c3ccc4ccccc4n3)c3ccccc32)cc1
[II] O=C1Nc2ccccc2/C1=N/NC(=O)c1ccccc1O
[III] O=C(CSc1nnc(-c2ccncc2)[nH]1)c1ccc(O)cc1O
[IV] O=C(O)COc1ccccc1/C=N/Nc1nncc(-c2ccccc2)n1
[V] COc1ccc(Nc2nc(NCc3ccco3)nc(N/N=C/c3ccc(Br)cc3)n2)cc1
-- ask Which order do these items take when sorted by rising IC50? List them. Would you mind listing the labels in the order asked for?
-- reply V, III, II, I, IV
(V: 13 µM, III: 25 µM, II: 57 µM, I: 84 µM, IV: 224 µM)

[I] Cn1c(SCC(=O)NNC(=O)c2cccc(O)c2)nc2sc3c(c2c1=O)CCC3
[II] CCCn1c(=O)c(C(=O)NNC(=O)CC(=O)OCC)c(O)c2ccccc21
[III] O=C(Nc1nccs1)/C(O)=C/C(=O)c1ccc(Cl)cc1
[IV] COc1cc([N+](=O)[O-])cc(/C=N/Nc2nc(Nc3ccccc3)nc(Nc3ccccc3)n2)c1O
-- ask Please rank these compounds by IC50 in descending order. A complete answer lists every label in the requested sequence.
-- reply I, III, II, IV
(I: 100 µM, III: 70 µM, II: 48 µM, IV: 29 µM)

[a] CCc1cccc2c(SCC(=O)NNC(=O)c3ccccc3[N+](=O)[O-])nc(-c3ccc(F)cc3)nc12
[b] CCCOc1ccc(/C=N/NC2=NC(c3ccccc3O)CC(c3ccccc3)=N2)c(O)c1 (stereo not given)
[c] COc1ccc(/C=C/C(=O)c2ccc(O)cc2O)cc1
[d] O=C(N/N=C/c1ccc(O)c(O)c1)c1ccccc1O
-- ask Rank entries according to their IC50, from the largest number down. When ranking, write the labels in the order the request describes.
-- reply a, b, c, d
(a: 100 µM, b: 60 µM, c: 39 µM, d: 26 µM)

---

- measurementTarget: Human immunodeficiency virus type 1 integrase (Human immunodeficiency virus 1)
- experimentSummary: Inhibition of HIV1 integrase 3'-end processing activity
pIC50: −log10 of the molar value.
propertyName: pIC50

Reference set, count: 3
O=C(COc1ccc2ccccc2c1)NNC(=O)c1cc2ccccc2cc1O; 4.74
COc1cc([N+](=O)[O-])cc(/C=N/Nc2nc(Nc3ccccc3)nc(Nc3ccccc3)n2)c1O; 4.54
O=C(N/N=C/c1ccc(O)c(O)c1)c1ccccc1O; 4.15

[a] O=C(CSc1nc(O)c2ccccc2n1)c1ccc(O)c(O)c1
[b] COc1cccc(/C=C/C(=O)c2ccccc2)c1O
-- ask # argmax over pIC50 for candidates a and b Refer to your chosen entry by its label in the reply.
-- reply b
(b: 5.70, a: 4.06)

---

- measurementTarget: Human immunodeficiency virus type 1 integrase (Human immunodeficiency virus 1)
- experimentSummary: Inhibition of HIV1 integrase strand transfer activity
propertyName: IC50 (µM)

// solved cases for IC50 follow
Cc1cc(C)cc(OCC(=O)NNC(=O)c2cc3ccccc3oc2=O)c1; 72
O=C(Nc1ccccc1C(=O)O)c1ccc(C(=O)Nc2ccccc2C(=O)O)cc1; 32
COc1ccc(C(=O)Nc2ccccc2C(=O)NC(C(=O)NNC(=O)c2ccccc2O)C(C)C)cc1 (centres undefined); 16
COc1cccc(C(=O)NNC(=O)c2ccc3ccccc3c2O)c1; 33
O=[N+]([O-])c1cc(Br)cc(/C=N/Nc2nc(Nc3ccccc3)nc(Nc3ccccc3)n2)c1O; 0.6
O=C1Nc2ccccc2/C1=N\NC(=O)c1ccc(O)cc1O; 36
O=C(O)c1cc(-c2ccc(/C=N/Nc3nc4nonc4nc3Nc3ccccc3F)o2)ccc1Cl; 4
CCCn1c(N/N=C/c2cc(Br)ccc2O)nc2c1c(=O)[nH]c(=O)n2C; 80
O=c1nc2n(-c3ccc(Cl)cc3)c3ccc([N+](=O)[O-])cc3cc-2c(=O)[nH]1; 49
CCn1c(=O)c(C(=O)NNC(=O)c2cccc([N+](=O)[O-])c2)c(O)c2ccccc21; 17

[a] COc1ccc(C(=O)NNC(=O)c2cc3ccccc3cc2O)cc1
[b] CNc1nc(N/N=C/c2ccc(-c3ccc([N+](=O)[O-])cc3OC)o2)nc(Nc2ccccc2)n1
-- ask Please indicate which item has the smaller measured IC50: a versus b State your choice using its label.
-- reply a

[A] CC(=O)Nc1ccc2c(c1)OCCOCCOc1cc(NC(C)=O)ccc1OCCOCCO2
[B] Nc1cc(O)nc(SCC(=O)c2ccc(O)c(O)c2)n1
-- ask Identify the item whose IC50 is the smaller number: A or B # reply format: chosen label
-- reply B

---

- measurementTarget: Human immunodeficiency virus type 1 integrase (Human immunodeficiency virus 1, UniProt Q7ZJM1)
- Sequence (Q7ZJM1 whole entry): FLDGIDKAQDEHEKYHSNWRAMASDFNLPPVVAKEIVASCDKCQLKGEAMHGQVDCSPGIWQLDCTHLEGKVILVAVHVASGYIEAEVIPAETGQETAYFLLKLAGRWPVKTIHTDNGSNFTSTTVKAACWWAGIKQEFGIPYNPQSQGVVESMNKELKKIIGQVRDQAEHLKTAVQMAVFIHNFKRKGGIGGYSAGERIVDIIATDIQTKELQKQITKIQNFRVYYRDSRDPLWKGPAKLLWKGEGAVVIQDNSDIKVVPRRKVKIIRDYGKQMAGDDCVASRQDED
- experimentSummary: Inhibition of HIV1 integrase 3'-end processing activity
propertyName: IC50 (µM)

O=C(CCC(=O)Nc1ccc([N+](=O)[O-])c(C(F)(F)F)c1)Nc1ccc([N+](=O)[O-])c(C(F)(F)F)c1; 196

[1] COc1ccc(C(=O)Nc2ccccc2C(=O)NC(C(=O)NNC(=O)c2ccccc2O)C(C)C)cc1 (stereo not given)
[2] Cc1cc(C)cc(OCC(=O)NNC(=O)c2cc3ccccc3oc2=O)c1
-- ask Looking at 1 and 2 , which one comes out lower in IC50 terms? Which one? Tell me its label.
-- reply 1

---

- measurementTarget: Human immunodeficiency virus type 1 integrase (Human immunodeficiency virus 1, UniProt Q7ZJM1)
- experimentSummary: Inhibition of HIV1 integrase strand transfer activity
propertyName: IC50 (µM)

CCOc1ccc(-c2c(C#N)c(N)nc(SCC(=O)c3cc4cc(Br)cc(Br)c4oc3=O)c2C#N)cc1; 4
Oc1ccc(-c2csc(Nc3ncccn3)n2)cc1O; 83
Cc1ccc(NCC(=O)N/N=C/c2cccc(OC(=O)c3ccc4c(c3)OCO4)c2)cc1; 731
CCN(CC)c1nc(N/N=C/c2ccc([N+](=O)[O-])cc2)nc(Nc2ccc(C)c(Cl)c2)n1; 200
O=C(/C=C/c1ccccc1O)c1ccc(O)cc1O; 47

[A] O=C(CNC(=O)c1ccc(Cl)cc1)OCC(=O)c1ccc([N+](=O)[O-])cc1
[B] O=C(CSc1nc2ccccc2c(=O)n1CC1CCCO1)NNC(=O)c1ccccc1O (stereo not given)
[C] O=C(/C=C/c1cccc(NC(=O)c2cccs2)c1)c1ccccc1
[D] O=C(CSc1nc(SCC(=O)NCc2ccco2)nc(SCC(=O)NCc2ccco2)n1)NCc1ccco1
-- ask Ordering criterion: IC50; begin with the maximum. Reply format: the labels, ordered as requested.
-- reply A, C, B, D
(A: 542 µM, C: 89 µM, B: 60 µM, D: 12 µM)

Reference for the values: ChEMBL document CHEMBL1139988
